Readings of microsomal CLint at 1 uM for the listed compounds
EXPERIMENT DESCRIPTION: Metabolic stability in human hepatic microsome
Type: in vitro ADME
CONDITION DETAILS: microsomes, pH 7.4; human hepatic microsome, NADPH(+); read-out: CL NADPH(+)
Starred links: 1 amine or outer side, 2 acyl side, 3 side chain; linkers in the order of their positions; H or OH if unused. Positions of bridges follow the written chain, without caps; N, C: chain ends. Non-standard residues stand in square brackets, D forms with d. Residues, ends and D or L forms follow the SMILES beside them. *: point of attachment. NMeF = CN[C@@H](Cc1ccccc1)C(=O)O; NMeβAla = CN(CCC(=O)[*:2])[*:1]; NMeL = CN[C@@H](CC(C)C)C(=O)O; NMeV = CN[C@H](C(=O)O)C(C)C; NMeA = CN[C@@H](C)C(=O)O; Piperidide = C1CCN(*)CC1; dNMeA = CN[C@H](C)C(=O)O; Sar = CNCC(=O)O; tBu = CC(C)(C)*
All answers are understood in µL/min/mg, so give the number only.

- COMPOUND: "CC[C@H](C)[C@@H]1NC(=O)[C@H](Cc2ccccc2)N(C)C(=O)[C@H](CC(C)C)N(C)C(=O)[C@H](Cc2ccccc2)NC(=O)[C@H](C)N(C)C(=O)[C@H]([C@@H](C)O)NC(=O)CCN(C)C(=O)C[C@@H](C(=O)N2CCCCC2)NC(=O)[C@H](CC(C)C)N(C)C(=O)[C@H](C(C)C)N(C)C1=O [DP-427] ([NMeβAla]T[NMeA]F[NMeL][NMeF]I[NMeV][NMeL]D-Piperidide; lactam N-10)"
  microsomal CLint at 1 uM (µL/min/mg): 141
- COMPOUND: "CC(C)C[C@H]1C(=O)N(C)[C@@H](CC(C)C)C(=O)N(C)[C@@H](CC(C)C)C(=O)N[C@H](C(=O)N2CCCCC2)CC(=O)N(C)CCC(=O)N[C@@H]([C@@H](C)O)C(=O)N(C)[C@@H](C)C(=O)N(C)[C@@H](Cc2ccccc2)C(=O)N(C)[C@@H](Cc2ccccc2)C(=O)NCC(=O)N1C [DP-174] ([NMeβAla]T[NMeA][NMeF][NMeF]G[NMeL][NMeL][NMeL]D-Piperidide; lactam N-10)"
  microsomal CLint at 1 uM (µL/min/mg): 66
- COMPOUND: "CC(C)C[C@H]1C(=O)N[C@H](C(=O)N2CCCCC2)CC(=O)N(C)CCC(=O)N[C@@H]([C@@H](C)O)C(=O)N(C)CC(=O)N[C@@H](COC(C)(C)C)C(=O)N(C)[C@@H](Cc2ccccc2)C(=O)N1C [DP-750] ([NMeβAla]T[Sar]S(tBu)[NMeF][NMeL]D-Piperidide; lactam N-7)"
  microsomal CLint at 1 uM (µL/min/mg): 49

Ask: // returns reported microsomal CLint at 1 uM for input CC(C)C[C@H]1C(=O)N[C@@H](COC(C)(C)C)C(=O)N(C)[C@@H](Cc2ccccc2)C(=O)N(C)[C@@H](CC(C)C)C(=O)N[C@H](C(=O)N2CCCCC2)CC(=O)N(C)CCC(=O)N[C@@H]([C@@H](C)O)C(=O)N1C [DP-746] ([NMeβAla]T[NMeL]S(tBu)[NMeF][NMeL]D-Piperidide; lactam N-7)
Result: 318

Ask: // returns reported microsomal CLint at 1 uM for input CC(C)C[C@H]1C(=O)N[C@H](C(=O)N2CCCCC2)CC(=O)N(C)[C@@H](C)C(=O)N(C)[C@@H](Cc2ccccc2)C(=O)N(C)[C@@H](CC(C)C)C(=O)N[C@@H]([C@@H](C)O)C(=O)N(C)CC(=O)N1C [DP-533] ([NMeA][NMeF][NMeL]T[Sar][NMeL]D-Piperidide; lactam N-7)
Result: 86

Ask: // returns reported microsomal CLint at 1 uM for input CC[C@H](C)[C@@H]1NC(=O)[C@H](CC(C)C)NC(=O)[C@@H](C)N(C)C(=O)C[C@@H](C(=O)N2CCCCC2)NC(=O)[C@H](C(C)C)N(C)C(=O)[C@H](CC(C)C)NC(=O)[C@H](Cc2ccccc2)NC(=O)[C@H]([C@@H](C)O)NC(=O)[C@H](CC(C)C)NC(=O)CN(C)C(=O)[C@H](C)NC1=O [DP-475] ([dNMeA]LIA[Sar]LTFL[NMeV]D-Piperidide; lactam N-11)
Result: 35

* * *

Readings of Hepatic microsome CLhint (Human) In the presence of NADPH for the listed molecules
EXPERIMENT DESCRIPTION: Metabolic stability in human hepatic microsome
Type: in vitro ADME
Positions of bridges follow the written chain, without caps; N, C: chain ends. Non-standard residues stand in square brackets, D forms with d. Residues, ends and D or L forms follow the SMILES beside them. *: point of attachment. NMeF = CN[C@@H](Cc1ccccc1)C(=O)O; NMeI = CC[C@H](C)[C@H](NC)C(=O)O; NMeL = CN[C@@H](CC(C)C)C(=O)O; NMeA = CN[C@@H](C)C(=O)O; Piperidide = C1CCN(*)CC1; Sar = CNCC(=O)O; tBu = CC(C)(C)*
All answers are understood in ul/min/mg Protein, so give the number only.

Before answering, review these 3 worked examples.
- MOLECULE: "CC[C@H](C)[C@H]1C(=O)N[C@H](C(=O)N2CCCCC2)CSCC(=O)N(C)[C@@H](Cc2ccccc2)C(=O)N(C)[C@@H](CC(C)C)C(=O)N[C@@H]([C@@H](C)O)C(=O)N(C)CC(=O)N(C)[C@@H](CC(C)C)C(=O)N[C@@H](COC(C)(C)C)C(=O)N1C [Compound P-103] ({CH2CO}-[NMeF][NMeL]T[Sar][NMeL]S(tBu)[NMeI]C-Piperidide; thioether N-8)"
  ASSAY VALUE: 221
- MOLECULE: "CC(C)C[C@H]1C(=O)N[C@@H](COC(C)(C)C)C(=O)N[C@H](C(=O)N2CCCCC2)CSCC(=O)N(C)[C@@H](C)C(=O)N(C)[C@@H](Cc2ccccc2)C(=O)N(C)[C@@H](CC(C)C)C(=O)N[C@@H]([C@@H](C)O)C(=O)N(C)CC(=O)N1C [Compound P-102] ({CH2CO}-[NMeA][NMeF][NMeL]T[Sar][NMeL]S(tBu)C-Piperidide; thioether N-8)"
  ASSAY VALUE: 124
- MOLECULE: "CC(C)C[C@H]1C(=O)N[C@@H](COC(C)(C)C)C(=O)N[C@H](C(=O)N2CCCCC2)CCC(=O)N[C@@H](C)C(=O)N(C)[C@@H](C)C(=O)N(C)[C@@H](Cc2ccccc2)C(=O)N(C)[C@@H](CC(C)C)C(=O)N[C@@H]([C@@H](C)O)C(=O)N(C)CC(=O)N1C [Compound P-121] (A[NMeA][NMeF][NMeL]T[Sar][NMeL]S(tBu)E-Piperidide; lactam N-9)"
  ASSAY VALUE: 69

Let us examine a further case.
Ask: // returns reported Hepatic microsome CLhint (Human) In the presence of NADPH for input CC[C@H](C)[C@H]1C(=O)N[C@H](C(=O)N2CCCCC2)CSCC(=O)N(C)[C@@H](C)C(=O)N(C)[C@@H](Cc2ccccc2)C(=O)N(C)[C@@H](CC(C)C)C(=O)N[C@@H]([C@@H](C)O)C(=O)N(C)CC(=O)N(C)[C@@H](CC(C)C)C(=O)N[C@@H](COC(C)(C)C)C(=O)N1C [Compound P-109] ({CH2CO}-[NMeA][NMeF][NMeL]T[Sar][NMeL]S(tBu)[NMeI]C-Piperidide; thioether N-9)
Result: 158

* * *

EXPERIMENT DESCRIPTION: PAMPA (parallel artificial membrane permeability assay)
Format: in vitro ADME
CONDITION DETAILS: PAMPA, pH 6.5
Positions of bridges follow the written chain, without caps; N, C: chain ends. Non-standard residues stand in square brackets, D forms with d. Residues, ends and D or L forms follow the SMILES beside them. *: point of attachment. NMeF = CN[C@@H](Cc1ccccc1)C(=O)O; NMeL = CN[C@@H](CC(C)C)C(=O)O; NMeV = CN[C@H](C(=O)O)C(C)C; Piperidide = C1CCN(*)CC1; Sar = CNCC(=O)O
Readings of Papp at 18 hours, 50 µM for the listed molecules
Be sure to follow the number with its unit.

- MOLECULE: "CC(C)C[C@H]1C(=O)NCC(=O)N(C)[C@@H](Cc2ccccc2)C(=O)N(C)[C@@H](C(C)C)C(=O)N[C@@H]([C@@H](C)O)C(=O)N[C@H](C(=O)N(C)[C@@H](Cc2ccccc2)C(=O)N(C)[C@@H](Cc2ccccc2)C(=O)N[C@@H](C)C(=O)N2CCCCC2)CC(=O)N(C)CC(=O)N[C@@H](C(C)C)C(=O)N(C)[C@@H](CC(C)C)C(=O)N[C@@H](Cc2ccccc2)C(=O)N1C [DP-303] ([Sar]V[NMeL]F[NMeL]G[NMeF][NMeV]TD[NMeF][NMeF]A-Piperidide; lactam N-10)"
  PROPERTY LABEL: "Papp at 18 hours, 50 µM"
  ASSAY VALUE: "1.2 ×10⁻⁶ cm/s"

Let us examine a further case.
Ask: // returns reported Papp at 18 hours, 50 µM for input CC(C)C[C@H]1C(=O)N[C@@H]([C@@H](C)O)C(=O)N(C)[C@@H](Cc2ccccc2)C(=O)N(C)[C@@H](CC(C)C)C(=O)NCC(=O)N(C)[C@@H](C(C)C)C(=O)N[C@@H](Cc2ccccc2)C(=O)N[C@H](C(=O)N(C)[C@@H](Cc2ccccc2)C(=O)N[C@@H](C)C(=O)N2CCCCC2)CC(=O)N(C)CC(=O)N[C@@H](C(C)C)C(=O)N1C [DP-304] ([Sar]V[NMeL]T[NMeF][NMeL]G[NMeV]FD[NMeF]A-Piperidide; lactam N-10)
Result: 35 ×10⁻⁶ cm/s

Attribution: patent US9409952B2
